# System: C2C12 cells
# experiment summary: Evaluation of myogenesis of C2C12 cells by fusion index
# Type: cell-based, mouse
# condition: Group 4; 1 μM; differentiation condition 72 hours; DMSO as 1; average of three
Catalogue of relative fusion index (FI) values

// known answers, use as guide
{"compound": "Cc1ccc(-n2cnc(N)c2C(=O)c2ccc(F)cc2)cc1 [exemplary compound 34]", "relative fusion index (FI)": 1.38}
{"compound": "Cc1ccc(-n2cnc(N)c2C(=O)c2ccc(Br)cc2)cc1 [exemplary compound 36]", "relative fusion index (FI)": 1.12}

Query :: I am curious: what relative fusion index (FI) value has been reported for Cc1ccc(-n2cnc(N)c2C(=O)c2ccc(Cl)cc2)cc1 [exemplary compound 32] ?
Result :: 1.16

Query :: Tell me the measured relative fusion index (FI) of Cc1ccc(-n2cnc(/N=C/N3CCOCC3)c2C(=O)c2ccccc2)cc1 [exemplary compound 1] , please.
Result :: 1.13
